Numbers sourced from ChEMBL document CHEMBL4400535.

system under test: MAO-A (Homo sapiens)
Sequence (P21397 whole entry): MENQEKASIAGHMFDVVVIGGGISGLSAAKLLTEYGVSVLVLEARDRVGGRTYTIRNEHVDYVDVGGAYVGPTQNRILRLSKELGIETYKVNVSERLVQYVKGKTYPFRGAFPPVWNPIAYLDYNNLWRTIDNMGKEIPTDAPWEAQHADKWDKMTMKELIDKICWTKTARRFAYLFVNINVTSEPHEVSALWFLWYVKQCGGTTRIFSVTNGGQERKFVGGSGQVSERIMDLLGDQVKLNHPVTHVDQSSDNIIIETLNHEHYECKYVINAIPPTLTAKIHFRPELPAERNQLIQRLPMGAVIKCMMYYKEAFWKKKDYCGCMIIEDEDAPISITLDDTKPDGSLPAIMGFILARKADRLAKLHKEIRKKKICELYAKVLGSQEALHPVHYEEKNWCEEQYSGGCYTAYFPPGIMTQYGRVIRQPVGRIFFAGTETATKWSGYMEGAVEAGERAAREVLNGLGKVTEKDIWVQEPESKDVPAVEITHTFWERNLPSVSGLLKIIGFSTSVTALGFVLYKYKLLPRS
protocol summary: Inhibition of MAO-A (unknown origin) at 10 uM relative to control
measure: inhibition at 10 µM (%)

- line notation: "Cc1cc(NN)n2nc(SCc3ccccc3)nc2n1"
  system under test: "MAO-A (Homo sapiens)"
  unit abbreviation: "%"
  numeric readout: 36

----------
system under test: MAO-B (Homo sapiens)
Sequence (P27338 whole entry): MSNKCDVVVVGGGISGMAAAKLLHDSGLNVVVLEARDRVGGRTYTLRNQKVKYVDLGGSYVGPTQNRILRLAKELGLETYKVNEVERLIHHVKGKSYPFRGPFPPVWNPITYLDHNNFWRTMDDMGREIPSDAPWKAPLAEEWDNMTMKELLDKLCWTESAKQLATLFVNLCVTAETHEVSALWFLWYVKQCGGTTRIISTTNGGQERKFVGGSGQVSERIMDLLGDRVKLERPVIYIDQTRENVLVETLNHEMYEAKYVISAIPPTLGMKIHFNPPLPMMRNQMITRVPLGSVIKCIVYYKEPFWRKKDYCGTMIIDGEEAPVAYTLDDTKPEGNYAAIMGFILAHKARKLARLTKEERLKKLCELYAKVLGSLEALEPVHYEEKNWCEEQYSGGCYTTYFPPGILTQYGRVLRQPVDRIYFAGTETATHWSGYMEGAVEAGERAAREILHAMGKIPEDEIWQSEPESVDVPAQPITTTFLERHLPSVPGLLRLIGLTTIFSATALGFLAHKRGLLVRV
protocol summary: Inhibition of MAO-B (unknown origin) at 1 uM relative to control

- line notation: "Cc1cc(NN)n2nc(SCc3ccccc3)nc2n1"
  inhibition at 1 µM, %: 15

----------
system under test: MAO-A (Homo sapiens)
protocol summary: Inhibition of MAO-A (unknown origin) at 1 uM relative to control
measure: inhibition at 1 µM (%)

- line notation: "Cc1cc(NN)n2nc(SCc3ccccc3)nc2n1"
  numeric readout: 21
